experiment: qHTS of pediatric cancer cell lines to identify multiple opportunities for drug repurposing: Primary screen for Rh41 cells (AID 1347108); note: nearly all actives have a fitted effect of over 70% in size; note: potency is the fitted concentration of half-maximal effect
condition-info: Rh41 rhabdomyosarcoma viability, CellTiter-Glo luminescence, 48 h; series mostly up to 46 µM
Inconclusive results are not listed. Calls of active or inactive are those of the source. Calls come from the whole dose curve; as a rule, active = well fitted cell-killing curve with a large enough effect; inconclusive = small, poorly fitted or top-dose-only effect; inactive = no such curve, though single readings can be large or run the other way.
experimental-readout: Potency

A selection of reference data follows.
compound | Potency
O=C1C(CCS(=O)c2ccccc2)C(=O)N(c2ccccc2)N1c1ccccc1 (stereo unspecified) | inactive
NC(=O)C1(N2CCCCC2)CCN(CCCC(=O)c2ccc(F)cc2)CC1 | inactive
OCc1ccccn1 | inactive
NC(N)=NN=C(/C=C/c1ccc([N+](=O)[O-])o1)/C=C/c1ccc([N+](=O)[O-])o1 | 1190 nM (active)
NC(=S)N/N=C/c1cccnc1 | inactive

Now for a further compound.
Return Potency for the following compound: N#C/C(=C1\SCC(c2ccccc2Cl)S1)n1ccnc1 (stereo unspecified)
inactive

* * *

Reported values of activity change, negative = inhibition for individual entries
experiment: qHTS Assay for Lipid Storage Modulators (AID 1519); note: % is set by controls: 0 for no effect and ±100 for the full control effect
condition-info: Drosophila S3 cells, BODIPY lipid droplet/cell ratio, laser cytometry; at 57.5 µM (top of the series); cells loaded with oleic acid
Description: NIH Molecular Libraries Probe Production Centers Network [MLPCN] NIH Chemical Genomics Center [NCGC] Assay Submitter (PI): Beller, Mathias; Max-Planck-Institut fur Biophysikalische Chemie […] We dispensed 4 uL of cells at 1.25 x 10^6 cells/mL into LoBase Aurora COC 1,536-well plates (black walled, clear bottom) with a bottle-valve solenoid-based dispenser (Aurora) to obtain 5,000 cells/well. […] The ratio of the total intensity in PMT channel 1 over total intensity of channel 3 was also calculated. […]
Results filed as inconclusive are left out.
Entry rule: numbers only, all in %.

See these solved cases before continuing.
compound | recorded-value
O=C(O)P(=O)(O)O | 3.11
O=C1C(O)=C(O)C(=O)C(O)=C1O | 9.14
CCN(CC)CCNc1ccc(CO)c2sc3ccccc3c(=O)c12 | -11.5
CC(C(=O)O)c1cccc(Oc2ccccc2)c1 (stereo not given) | 9.66
CN=C(N)NCCC[C@H](N)C(=O)O | 0.0216
NC(N)=NCc1cccc(I)c1 | 3.74
COC(=O)C(c1ccccc1Cl)N1CCc2sccc2C1 (stereo not given) | 8.17
CCCCC(CC)CN1CN(CC(CC)CCCC)CC(C)(N)C1 (stereo not given) | 3.27

Name the recorded activity change, negative = inhibition of the item CCCN(CCC)S(=O)(=O)c1ccc(C(=O)O)cc1 in your answer.
1.2

Given the compound CC(=O)NCCCCCC(=O)O , write its reported activity change, negative = inhibition.
4.31

* * *

test-target: Nuclear receptor subfamily 1 group I member 2 (Rattus norvegicus)
experiment: qHTS assay for small molecule activators of the rat pregnane X receptor (rPXR) signaling pathway (AID 651751); note: 0% is about no effect
condition-info: rPXR reporter cells, luciferase (One-Glo), 24 h
experimental-readout: max response (%)
Please respond with the number in % and leave the unit unwritten.

Worked set:
compound | test-target | recorded-value
CCCCCCCC/C=C\CCCCCCCCN | Nuclear receptor subfamily 1 group I member 2 (Rattus norvegicus) | 3.35
OC[C@H]1O[C@@H]2O[C@H]3[C@H](O)[C@@H](O)[C@@H](O[C@H]4[C@H](O)[C@@H](O)[C@@H](O[C@H]5[C@H](O)[C@@H](O)[C@@H](O[C@H]6[C@H](O)[C@@H](O)[C@@H](O[C@H]7[C@H](O)[C@@H](O)[C@@H](O[C@H]8[C@H](O)[C@@H](O)[C@@H](O[C@H]1[C@H](O)[C@H]2O)O[C@@H]8CO)O[C@@H]7CO)O[C@@H]6CO)O[C@@H]5CO)O[C@@H]4CO)O[C@@H]3CO | Nuclear receptor subfamily 1 group I member 2 (Rattus norvegicus) | -1.43
CC1(C)OC[C@@H]2O[C@@]3(C(=O)O)OC(C)(C)O[C@H]3[C@@H]2O1 | Nuclear receptor subfamily 1 group I member 2 (Rattus norvegicus) | 0.338
CC(C)(C)CC(C)(C)c1ccc(O)c(-n2nc3ccccc3n2)c1 | Nuclear receptor subfamily 1 group I member 2 (Rattus norvegicus) | 0.874

Determine reported max response for CC1(COc2ccc(CC3SC(=O)NC3=O)cc2)CCCCC1 (stereo not given) ; test system: Nuclear receptor subfamily 1 group I member 2 (Rattus norvegicus).
13.5

* * *

Tested on: DIV14
experiment: qHTS profiling for inhibitors of Plasmodium falciparum proliferation (AID 504749); note: nearly all actives have a fitted effect of over 60% in size
condition-info: P. falciparum in erythrocytes, SYBR Green DNA, 72 h; series mostly up to 28.7 µM
Results filed as inconclusive are left out. The source made the active and inactive calls. Calls come from the whole dose curve; as a rule, active = well fitted inhibition curve with a large enough effect; inconclusive = small, poorly fitted or top-dose-only effect; inactive = flat fitted curve, though single readings scatter.
Choose one outcome from this list and give only that: True for active, False for inactive

Solved entries (count: 8):
compound | test-target | discrete-label
Cc1cccc(C)c1NC(=O)CN1CCCCCC1 | DIV14 | False
CCCCCCCCCCCCCC[N+](C)(C)Cc1ccccc1 | DIV14 | True
COc1cc(C(=O)NCc2ccc(OCCN(C)C)cc2)cc(OC)c1OC | DIV14 | False
CCc1ccc(C(=O)C(C)CN2CCCCC2)cc1 (stereo unspecified) | DIV14 | False
CCOC(=O)[C@H](CCc1ccccc1)N[C@@H](C)C(=O)N1[C@H](C(=O)O)C[C@H]2CCCC[C@@H]21 | DIV14 | False
CN1CCN(c2cc3c(cc2F)c(=O)c(C(=O)O)cn3-c2ccc(F)cc2)CC1 | DIV14 | False
COc1ccc2c(c1)c1c3n2CCN(C)C3=NCC1 | DIV14 | False
CC(C)Cc1ccc(CC(=O)O)cc1 | DIV14 | False

Give the logged outcome of this assay for the following compound: CCCCN=C(N)N=C(N)N
False

Please state the recorded outcome for this compound: CC1=C(C(=O)O)N2C(=O)[C@@H](NC(=O)[C@H](N)c3ccccc3)[C@H]2SC1
False

What did this assay record as the result for COc1ccc(CCN(C)CCCN2CCc3cc(OC)c(OC)cc3CC2=O)cc1OC ?
False

* * *

Tested on: AS120
experiment: qHTS profiling for inhibitors of Plasmodium falciparum proliferation (AID 504749); note: nearly all actives have a fitted effect of over 60% in size
condition-info: P. falciparum in erythrocytes, SYBR Green DNA, 72 h; series mostly up to 28.7 µM
Records with an inconclusive call do not appear. The source made the active and inactive calls. Calls follow the shape of the dose curve; as a rule, active = well fitted inhibition curve with a large enough effect; inconclusive = small, poorly fitted or top-dose-only effect; inactive = flat fitted curve, though single readings scatter.
Returns: one label drawn from TRUE = active, FALSE = inactive

smiles-data | discrete-label
COc1ccc(CN(CCN(C)C)c2ncccn2)cc1 | FALSE
CC(=O)NC(=O)c1ccccc1O | FALSE
COc1cc(C)nc(-n2nc(C)cc2OC)n1 | FALSE

Short answer needed: outcome of this test for CC(=O)O[C@]1(C(C)=O)CC[C@H]2[C@@H]3C=C(Cl)C4=CC(=O)CC[C@]4(C)[C@H]3CC[C@@]21C ?
TRUE

* * *

Item-by-item account of max response
System: NIH3T3
experiment: Cytotoxic Profiling of Annotated Libraries Using Quantitative High-Throughput Screening (AID 1296008); note: % is set by controls: 0 for no effect and ±100 for the full control effect; nearly all actives have a fitted effect of over 60% in size
condition-info: Five cell lines viability, CellTiter-Glo ATP luminescence, 48-72 h; active compounds read low
Results filed as inconclusive are left out. Activity calls are given as the source filed them. Calls come from the whole dose curve; as a rule, active = well fitted inhibition curve with a large enough effect; inconclusive = small, poorly fitted or top-dose-only effect; inactive = flat fitted curve, though single readings scatter.

compound | recorded-value
CO[C@H]1C=CO[C@@]2(C)Oc3c(C)c(O)c4c(O)c(c(/C=N/N5CCN(C)CC5)c(O)c4c3C2=O)NC(=O)/C(C)=C\C=C[C@H](C)[C@H](O)[C@@H](C)[C@@H](O)[C@@H](C)[C@H](OC(C)=O)[C@@H]1C | -0.808% (inactive)
C#C[C@]1(OC(C)=O)CC[C@H]2[C@@H]3CCC4=C/C(=N/O)CC[C@@H]4[C@H]3CC[C@@]21CC | 2.39% (inactive)

# ---- query compound ----
Look up max response of O=C1C(CCS(=O)c2ccccc2)C(=O)N(c2ccccc2)N1c1ccccc1 (configuration not stated) and report it.
-2.37% (inactive)

* * *

Test system: SKOV3
experiment: Primary qHTS to identify gynecologic anti-cancer compounds using libraries of approved drugs and bioactive compounds (AID 1345084); note: % is set by controls: 0 for no effect and ±100 for the full control effect; nearly all actives have a fitted effect of over 55% in size
condition-info: Gynecologic cancer cell panel viability, ATPlite luminescence, 48 h; series mostly up to 57.5 µM
Results filed as inconclusive are left out. The source made the active and inactive calls. Calls come from the whole dose curve; as a rule, active = well fitted cell-killing curve with a large enough effect; inconclusive = small, poorly fitted or top-dose-only effect, or effect the other way; inactive = flat fitted curve, though single readings scatter.
Response enum: yes (1) for active, no (0) for inactive

compound | discrete-label
CC(=O)Nc1ccc(OCC(O)CNC(C)C)cc1 (centres undefined) | no (0)

// outcome(item) with item = CC1=C(C(=O)O)N2C(=O)[C@@H](NC(=O)[C@H](N)c3ccccc3)[C@H]2SC1
no (0)

Tell me the recorded outcome of this test for CCOC(=O)Nc1ccc2c(c1)N(C(=O)CCN1CCOCC1)c1ccccc1S2 .
no (0)

Just curious, what result did NC(=S)N/N=C/c1cccnc1 get here?
no (0)

* * *

Tested on: CASKI
experiment: Primary qHTS to identify gynecologic anti-cancer compounds using libraries of approved drugs and bioactive compounds (AID 1345084); note: % is set by controls: 0 for no effect and ±100 for the full control effect; nearly all actives have a fitted effect of over 55% in size
condition-info: Gynecologic cancer cell panel viability, ATPlite luminescence, 48 h; series mostly up to 57.5 µM
Results filed as inconclusive are left out. Active and inactive are the calls of the source. The call rests on the fitted dose curve; in most records, active means well fitted cell-killing curve with a large enough effect; inconclusive means small, poorly fitted or top-dose-only effect, or effect the other way; inactive means flat fitted curve, though single readings scatter.
experimental-readout: outcome

Here are 8 compounds together with their reported answers.
compound | outcome
CC(=O)Nc1ccc(OC(=O)c2ccccc2OC(C)=O)cc1 | inactive
C=C1c2cccc(O)c2C(O)=C2C(=O)[C@]3(O)C(O)=C(C(N)=O)C(=O)[C@@H](N(C)C)[C@@H]3[C@@H](O)[C@H]12 | inactive
Oc1ccc(Cl)cc1Cc1cc(Cl)ccc1O | inactive
Nc1ccc(S(=O)(=O)NCc2ccccc2)cc1 | inactive
COc1ccc(C(Cl)=C(c2ccc(OC)cc2)c2ccc(OC)cc2)cc1 | inactive
CC1(COc2ccc(CC3SC(=O)NC3=O)cc2)CCCCC1 (stereo not given) | inactive
CCO[C@@H]1O[C@H](C(COCc2ccccc2)OCc2ccccc2)[C@H](OCc2ccccc2)[C@H]1O (stereo not given in full) | inactive
Cc1cccc(C)c1NC(=O)CN1CCCCCC1 | inactive

Retrieve outcome measured for CCOC(=O)[C@H](CCc1ccccc1)N[C@@H](C)C(=O)N1[C@H](C(=O)O)C[C@@H]2CCC[C@@H]21 and print it.
inactive

Dear colleague, please send me the reported outcome for CCc1nn(CCCN2CCN(c3cccc(Cl)c3)CC2)c(=O)n1CCOc1ccccc1 when you can.
inactive
